meta.source: patent US20260193326A1

target: T1, AAV5 (adeno-associated virus 5); experiment: SPR, AAV amine-coupled to CM5 chip;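 further: nanobodies flowed as analyte at seven concentrations spanning 1–100 nM over immobilized AAV (500–800 RU), kinetic constants derived by fitting the binding curves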
T1 construct: also called adeno-associated virus serotype 5
pKd: −log10 of the molar value.
Could you label it 1 (yes) if measured pKd is 8 or higher, and 0 (no) otherwise?

[
  {
    "Binder": "A4-079 (VHH) VHH: VQLQESGGGLVQPGGSLRLSCAASGTRFSINTMGWYRQAPGKQRELVANVTPAGSTNYADSVKGRFTISRDNAKNTVYLQMNSLRPEDTAVYYCHVDELRDSSWTTSNLWGQGTQVTVSS",
    "Cat": "0 (no)"
  },
  {
    "Binder": "A4-075 (VHH) VHH: VQLQESGGGLVQSGGSLRLSCAASGSMFSLNTMGWYRQAPGKQRELVATITRGGGTNYADSVKGRFTISRDNAKNTVYLQMNSLRPEDTAVYYCHVDELRQSSWTTSNLWGQGTQVTVSS",
    "Cat": "0 (no)"
  },
  {
    "Binder": "A4-064 (VHH) VHH: VQLQESGGGLVQSGGSLRLSCAASGRNFSLNTVGWYRQAPGKQRELVATVTSGGGTNYAGSVKGRFTISRDNAKNTVYLQMNSLRPEDTAVYYCHVDEVRESTWTTSNLWGQGTQVTVSS",
    "Cat": "0 (no)"
  },
  {
    "Binder": "A4-057 (VHH) VHH: VQLQESGGGLVQPGGSLRLSCAASGSIFSINTMGWYRQAPGKQREKVAAVTRGGSTNYADSVKGRFTISRDNAKNTVYLQMNSLRPEDTAVYYCHVDEVRQSSWTTSNLWGQGTQVTVSS",
    "Cat": "0 (no)"
  }
]

Exercise: Hello, I need to know if A4-084 (VHH) VHH: VQLQESGGGLVQPGGSLKLSCAASGSRFSLNTMGWYRQAPRKQREFVAAVTRGGNTNYGDFVKGRFTISRDNAKNTVYLQMNSLRPEDTAVYYCHVDELRESSWTTSNLWGQGTQVTVSS has measured pKd not below 8. Thanks!
Solution: 1 (yes)

Exercise: Hello, I need to know if A4-090 (VHH) VHH: VQLQESGGGLVQPGGSLRLSCVASGSRFIINTMGWYRQAPGKQRELVATFTRGGNTNYAESVKGRFTISRDNGKSTVYLQMNSLRPEDTAVYYCHVDEVRESTWTTSNLWGQGTQVTVSS has measured pKd not below 8. Thanks!
Solution: 0 (no)

Exercise: Hello, I need to know if A4-065 (VHH) VHH: VQLQESGGGLVQSGGSLRLSCAASGRNFSLNTVGWYRQAPGKQRELVATVTRGGSTNYAGSVKGRFTISRDNAKNTVYLQMNSLRPEDTAVYYCHVDEVRESSWTTSNLWGQGTQVTVSS has measured pKd not below 8. Thanks!
Solution: 0 (no)

Exercise: Hello, I need to know if A4-076 (VHH) VHH: VQLQESGGGLVHSGGSLRLSCAASGSMFSLNTMGWYRQAPGKQRELVATITRGGGTSYADSVKGRFTISRDNAKNTVYLQMNSLRPEDTAVYYCHVDELRQSSWTTSNLWGQGTQVTVSS has measured pKd not below 8. Thanks!
Solution: 0 (no)

Exercise: Hello, I need to know if A4-087 (VHH) VHH: VQLQESGGGLVQPGGSLRLSCAASGSRFSLNTMGWYRQAPGKQRELVAAVTRGGNTNYGDFVKGRFTISRDNAKNTVYLQMNSLRPEDTAVYYCHVDELRESSWTTSNLWGQGTQVTVSS has measured pKd not below 8. Thanks!
Solution: 1 (yes)

Exercise: Hello, I need to know if A4-097 (VHH) VHH: VQLQESGGGLVQPGGSLRLSCIASGSIFSANTMGWYRQAPGKQRELVATITRGGNTNYGDSVKGRFTISRDNAKNTVYLQMNTLRPEDTAVYYCHVDEIRESSWTTSNLWGQGTQVTVSS has measured pKd not below 8. Thanks!
Solution: 0 (no)

Exercise: Hello, I need to know if A4-099 (VHH) VHH: VQLQESGGGLVQTGGSLRLSCAASGSSFSINTMGWYRQAPGKWRELVAAVTRGGDTNYAESVKGRFTISRDNGKNTVYLQMNSLRPEDTAVYYCHIDEIRESSWTTSNLWGQGTQVTVSS has measured pKd not below 8. Thanks!
Solution: 1 (yes)

Exercise: Hello, I need to know if A4-092 (VHH) VHH: VQLQESGGGLVQTGGSLRLSCLASGSIFSINTMGWYRQRAGKQRELVATVTRAGSTNYADSVKGRFTISRDNAKNTVYLQMNSLRPEDTAVYYCHVDEIRESSWTTSNLWGQGTQVTVSS has measured pKd not below 8. Thanks!
Solution: 1 (yes)
